Values compiled from PubChem BioAssay (NCI).

assayOverview: NCI Yeast Anticancer Drug Screen. Data for the sgs1 mgt1 strain (AID 161);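 also: 0% = growth of cultures given vehicle only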
setupConditions: S. cerevisiae sgs1 mgt1 strain, hits give high values; at 50.0 µM unless noted
Compounds without any hit were thinned out: in the full panel of roughly 79,000, 15% have a hit.
The compounds listed here are annotated with their growth inhibition.
readoutLabel: growth inhibition (%)

| compound | observed |
| --- | --- |
| CCCCN(CCCC)CC(C(=O)Nc1ccc([N+](=O)[O-])cc1[N+](=O)[O-])/C(C)=N\NC(=S)NN (configuration not stated) | 44.7 |
| N=c1ccccn1CC(O)COc1ccc(Cl)cc1 (configuration not stated) | -8.85 |
| S=C(NC1CCCCC1)SSSSC(=S)NC1CCCCC1 | 22.2 |
| CN(C)c1ccc(N)c(N)c1 | -4.45 |
| O=C1OC(c2ccccc2)=C2CCC3CCCCN1C23 (configuration not stated) | 12.8 |
| CCOc1ccc(NC(N)=O)cc1 | -14.5 |
| CCC(NN)C(=O)O (configuration not stated) | -33.6 |

----------
assayOverview: NCI Yeast Anticancer Drug Screen. Data for the sgs1 mgt1 strain (AID 161);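 also: 0% = growth of cultures given vehicle only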
setupConditions: S. cerevisiae sgs1 mgt1 strain, hits give high values; at 50.0 µM unless noted
Compounds without any hit were thinned out: in the full panel of roughly 79,000, 15% have a hit.
Listed compounds paired with reported growth inhibition
readoutLabel: growth inhibition (%)

| compound | observed |
| --- | --- |
| O=C(Cc1nc2ccc(C(=O)c3ccccc3)cc2[nH]c1=O)C(=O)Nc1ccc(C(F)(F)F)cc1[N+](=O)[O-] | -3.9 |
| CC(C)N(Cc1ccccc1)S(=O)(=O)c1n[nH]c(C(C)(C)C)n1 | -3.65 |
| Cc1cc2nc3c(=O)[nH]c(=O)nc-3n(C/C=N/NC(N)=S)c2cc1C | -5.05 |
| CC(=O)CCC(C)C1CCC2C3CCC4CCCCC4(C)C3CCC12C (stereo not given) | -7.75 |
| COc1ccc(CCNS(=O)(=O)c2c(C)c(C)c(C)c(C)c2C)cc1OC | 5.1 |

----------
assayOverview: NCI Yeast Anticancer Drug Screen. Data for the mlh1 rad18 strain (AID 175)
setupConditions: S. cerevisiae mlh1 rad18 strain growth inhibition, hits give high values; at 50.0 µM unless noted
Description: Growth inhibition of yeast strains with defined genetic alterations is measured as a screen for potential anti-cancer activity. Selected strains with alterations in DNA damage repair or cell cycle control were exposed to compounds and growth inhibition was measured relative to vehicle treated controls. The strain used in this assay is mlh1 rad18
About 79,000 compounds went through this panel and 15% of them were active in at least one assay; those are over-represented in the sample as a whole.

| compound | unitOfMeasure | growth inhibition |
| --- | --- | --- |
| CC(=O)OC1CC2C3CCc4cc(O)ccc4C3CCC2(C)C1 (stereo not drawn) | % | 3.2 |
| CCC(=O)C(C)=O | % | 11.7 |
| O=C(Nc1cccc(Cl)c1)Oc1c([N+](=O)[O-])cc(Cl)cc1[N+](=O)[O-] | % | 28.3 |
| CCN(CC)c1c(C)c(-c2ccccc2)n[n+]([O-])c1-c1ccccc1 | % | 24.8 |
| O=C1c2cccc3cc([N+](=O)[O-])cc(c23)C(=O)N1C(CO)(CO)CO | % | -4.45 |
| Cc1nc2ncnc(N)c2[nH]1 | % | -5.95 |
| O=C(O)/C=C\C(=O)Nc1ccc2c(c1)Cc1cc(O)ccc1-2 | % | -0.3 |
| Cn1cnc2ncnc(Cl)c21 | % | -26.9 |
| O=C(Cc1ccccc1)NCc1ccco1 | % | 7.3 |
| Cc1cc(C)[nH]c(=O)c1 | % | 4.4 |
| Cc1c(C(=O)CC(=O)C(=O)Nc2ccc(Cl)c(Cl)c2)[n+](=O)c2ccccc2n1[O-] | % | 20.2 |
| NC1N=Nc2ccccc21 (stereo not drawn) | % | 41.3 |
| N#C/C=C\c1ccc(-c2cc(C(F)(F)F)cc(C(F)(F)F)c2)o1 | % | -57.5 |
